FYI, the data here is from patent US20240335555A1.

biological target: SARS-CoV-2 (COVID-19) S Protein RBD, His Tag (SARS-CoV-2, UniProt P0DTC2 319-537); experiment: ELISA, Spike RBD anchored on plate
measurement_type: EC50 (nM)
Record the value in nM, omitting the unit from your answer.

Query string: Give the value of EC50 reported for the following: I-27 (other, also called MATE agent I-27) peptide: NDDELLMLVTDLVAEALLFAKDEEIKKRVFTLFELADKAYKNNDRDTLSKVVSELKELLERLQSGGSEQKLISEEDLGSGGGGSLPET
Result string: 4
